Origin of values: patent US8637537B2

# Study System: human recombinant GST-PAK1-KD protein (Homo sapiens, UniProt Q13153)
# Construct: residues #249-545 of human PAK1, UniProtKP/Swiss Q13153; His6 (N); made in house; host or cells: Sf9 insect cells, pAcGP67 baculovirus expression vector
# Sequence (Q13153 249-545): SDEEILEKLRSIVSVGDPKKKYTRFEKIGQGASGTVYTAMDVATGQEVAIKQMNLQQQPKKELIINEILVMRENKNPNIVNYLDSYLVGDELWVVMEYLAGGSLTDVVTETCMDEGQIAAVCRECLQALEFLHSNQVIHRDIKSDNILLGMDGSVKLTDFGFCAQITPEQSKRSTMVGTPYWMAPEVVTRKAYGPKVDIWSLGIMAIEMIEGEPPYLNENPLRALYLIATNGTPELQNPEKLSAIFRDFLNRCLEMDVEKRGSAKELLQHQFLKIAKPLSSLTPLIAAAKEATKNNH
# Test Details: GST-PAK1-KD (kinase domain) biochemical assay, microfluidic mobility shift
# Cond: Table II, PAK1 Ki class; read-out: Ki
pKi: −log10 of the molar value.
Measure Name: pKi

Would you please look over these solved cases?
CN(Cc1ccc2[nH]cnc2c1Cl)c1nccc(Nc2cc([C@@H]3C[C@H]3F)[nH]n2)n1	> 7.30
Cc1cc(CNc2ncc(F)c(Nc3cc(C4CC4)[nH]n3)n2)c2cn[nH]c2c1	> 7.30
CC(C)N(Cc1cc(F)cc2[nH]ncc12)c1nccc(Nc2cc(C3CC3)[nH]n2)n1	> 7.30

Next item in the queue.
Briefly, pKi measured for Cc1c(CNc2ncc(F)c(Nc3cc(C4CC4)[nH]n3)n2)ccc2[nH]cnc12 : 6.60 to 7.30

* * *

Ki reference
# Study System: human recombinant GST-PAK1-KD protein (Homo sapiens)
# Construct: residues #249-545 of human PAK1, UniProtKP/Swiss Q13153; His6 (N); made in house; host or cells: Sf9 insect cells, pAcGP67 baculovirus expression vector
# Test Details: GST-PAK1-KD (kinase domain) biochemical assay, microfluidic mobility shift
# Cond: Table I, PAK1 Ki class; read-out: Ki

Would you please look over these solved cases?
FC(F)(F)c1cc(Nc2cc(C3CC3)[nH]n2)nc(NCc2ccc3[nH]cnc3c2)n1 [I-11]	< 50 nM
C[C@H](Nc1nccc(Nc2cc(CC3CC3)[nH]n2)n1)c1ccc2[nH]cnc2c1 [I-45]	< 50 nM
C[C@H](c1ccc2[nH]cnc2c1)N(C)c1nccc(Nc2cc(C3CC3)[nH]n2)n1 [I-55]	50 to 250 nM
Cc1cc(Nc2cc(C3CC3)[nH]n2)nc(NCc2ccc3[nH]ccc3c2Cl)n1 [I-19]	50 to 250 nM

Next item in the queue.
Briefly, Ki measured for Clc1cnc(NCc2cccc3[nH]ccc23)nc1Nc1cc(C2CC2)[nH]n1 [I-49] : 250 to 1000 nM

* * *

Ki reference
# Study System: human recombinant GST-PAK1-KD protein (Homo sapiens)
# Construct: residues #249-545 of human PAK1, UniProtKP/Swiss Q13153; His6 (N); made in house; host or cells: Sf9 insect cells, pAcGP67 baculovirus expression vector
# Test Details: GST-PAK1-KD (kinase domain) biochemical assay, microfluidic mobility shift
# Cond: Table I, PAK1 Ki class; read-out: Ki

Would you please look over these solved cases?
C[C@H](Nc1nccc(Nc2cc([C@H]3C[C@@H]3c3ccccc3)[nH]n2)n1)c1ccc2[nH]cnc2c1 (stereo in doubt)	0.05 to 0.25 µM
Clc1c(CNc2nccc(Nc3cc(C4CCCC4)[nH]n3)n2)ccc2[nH]cnc12	< 0.05 µM
C[C@H](Nc1nccc(Nc2cc([C@@H]3C[C@@H]3F)[nH]n2)n1)c1ccc2[nH]cnc2c1 (single isomer, unassigned)	< 0.05 µM
CCN(Cc1ccc2[nH]cnc2c1)c1nccc(Nc2cc(C3CC3)[nH]n2)n1	< 0.05 µM
c1cc(CNc2nccc(Nc3cc(C4CC4)[nH]n3)n2)c2cn[nH]c2c1	< 0.05 µM
C[C@H](Nc1nccc(Nc2cc(C3CC3)[nH]n2)n1)c1ccc2[nH]ccc2c1Cl	0.05 to 0.25 µM
CC[C@H](Nc1nccc(Nc2cc(C3CC3)[nH]n2)n1)c1ccc2[nH]cnc2c1	< 0.05 µM
C[C@H](Nc1nccc(Nc2cc(C3CC(F)(F)C3)[nH]n2)n1)c1ccc2[nH]ccc2c1	< 0.05 µM
Fc1cc(CNc2nccc(Nc3cc(C4CC4)[nH]n3)n2)cc2nc[nH]c12	0.05 to 0.25 µM
c1cc(CNc2nccc(Nc3cc(OCC4CC4)[nH]n3)n2)c2cc[nH]c2c1	0.25 to 1 µM

Briefly, Ki measured for C[C@H](Nc1nccc(Nc2cc([C@H]3C[C@@H]3c3ccccc3F)[nH]n2)n1)c1ccc2[nH]cnc2c1 (stereo in doubt) : 0.05 to 0.25 µM

Briefly, Ki measured for C[C@H](Nc1nccc(Nc2cc(OCc3ccccc3)[nH]n2)n1)c1ccc2[nH]cnc2c1 : 0.05 to 0.25 µM

Briefly, Ki measured for c1cc(CNc2nccc(Nc3cc(C4CCOC4)[nH]n3)n2)c2cc[nH]c2c1 (centres unmarked) : 0.05 to 0.25 µM

Briefly, Ki measured for Cc1cc(Nc2ccnc(NCc3cccc4[nH]ccc34)n2)n[nH]1 : > 1 µM

Briefly, Ki measured for C[C@H](Nc1nccc(Nc2cc(C3CC3)[nH]n2)n1)c1ccc2cc[nH]c2c1 : 0.25 to 1 µM

Briefly, Ki measured for C[C@H](Nc1nccc(Nc2cc([C@@H]3CC3(F)F)[nH]n2)n1)c1ccc2[nH]cnc2c1 : 0.05 to 0.25 µM

Briefly, Ki measured for C[C@H](Nc1ncc(Cl)c(Nc2cc(C3CC3)[nH]n2)n1)c1ccc2[nH]cnc2c1 : 0.05 to 0.25 µM
